- TEST NAME: Study KAR5585-101 Part 1 (SAD): plasma pharmacokinetics after a single oral dose of KAR5585, fasting and fed (incl. dose proportionality and food effect)
- EXPERIMENTAL CONTEXT: human, plasma, po, 700 mg, tmax, KAR5417 after 700 mg KAR5585 single oral, fasted, Cohort 4; Median
REPORTED METRIC: Tmax (h)
Unit h implied. Number only.

Prompt: Which Tmax value belongs to Nc1nc(O[C@H](c2ccc(Cl)cc2-c2ccccc2)C(F)(F)F)cc(N2CCC3(CC2)CN[C@H](C(=O)O)C3)n1 ?
Completion: 4

====

- TEST NAME: Study KAR5585-101 Part 1 (SAD): plasma pharmacokinetics after a single oral dose of KAR5585, fasting and fed (incl. dose proportionality and food effect)
- EXPERIMENTAL CONTEXT: human, plasma, po, 100 mg, C12, KAR5417 after 100 mg KAR5585 single oral, fasted, Cohort 1; Mean
REPORTED METRIC: concentration at 12 h
Give the value; after it, write the unit.

Prompt: Which concentration at 12 h value belongs to Nc1nc(O[C@H](c2ccc(Cl)cc2-c2ccccc2)C(F)(F)F)cc(N2CCC3(CC2)CN[C@H](C(=O)O)C3)n1 ?
Completion: 23.8 ng/mL

Ref: patent US20240041877A1
